Reported inhibition at 1 µM values for the following compounds.
- experimental.system: MNK1a (Homo sapiens (Human))
- Sequence (Q9BUB5 other isoform, or with tags, fused parts or gaps): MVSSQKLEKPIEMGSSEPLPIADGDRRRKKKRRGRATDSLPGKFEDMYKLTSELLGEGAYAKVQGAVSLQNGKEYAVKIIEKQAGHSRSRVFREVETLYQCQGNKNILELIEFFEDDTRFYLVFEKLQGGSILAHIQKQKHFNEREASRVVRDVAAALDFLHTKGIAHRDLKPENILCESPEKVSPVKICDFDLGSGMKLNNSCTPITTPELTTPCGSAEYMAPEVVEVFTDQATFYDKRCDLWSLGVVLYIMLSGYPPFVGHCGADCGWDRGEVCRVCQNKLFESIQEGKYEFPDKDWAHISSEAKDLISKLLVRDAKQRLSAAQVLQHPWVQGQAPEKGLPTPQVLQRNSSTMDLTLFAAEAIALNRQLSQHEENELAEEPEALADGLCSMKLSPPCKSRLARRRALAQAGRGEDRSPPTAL
- measurement.description: MNK1 in vitro kinase assay (Assay 3), Z'-LYTE
- Assay type: biochemical
- test.context: compound concentration of 1 μM, read-out: MNK1 % INH
# number only, unit % dropped from output

Worked set:
compound="CS(C)(=O)=Nc1cc(F)c2c(Nc3ccc(Cl)nc3O[C@H]3COC[C@@H]3O)ncnc2c1 [Example 1.21]" experimental_system="MNK1a (Homo sapiens (Human))" endpoint_name="inhibition at 1 µM" quantitative_result=93
compound="CO[C@@H]1CC[C@@H](Oc2cc(F)ccc2Nc2ncnc3cc(N=S(C)(C)=O)cc(C)c23)CO1 (racemic) [Example 2.63]" experimental_system="MNK1a (Homo sapiens (Human))" endpoint_name="inhibition at 1 µM" quantitative_result=102
compound="Cc1c(F)c(N=S(C)(C)=O)cc2ncnc(Nc3ccc(F)cc3O[C@H]3COC[C@@H]3O)c12 [Example 1.33]" experimental_system="MNK1a (Homo sapiens (Human))" endpoint_name="inhibition at 1 µM" quantitative_result=96
compound="CS(C)(=O)=Nc1cc(C(F)(F)F)c2c(Nc3ccc(F)cc3O[C@H]3COC[C@@H]3O)ncnc2c1 [Example 1.12]" experimental_system="MNK1a (Homo sapiens (Human))" endpoint_name="inhibition at 1 µM" quantitative_result=88
compound="Cc1cc(N=S(C)(C)=O)cc2ncnc(Nc3ccc(Cl)nc3O[C@@H]3COC[C@H]3O)c12 [Example 2.48]" experimental_system="MNK1a (Homo sapiens (Human))" endpoint_name="inhibition at 1 µM" quantitative_result=90
compound="COc1cc(N=S2(=O)CCC(C)C2)cc2ncnc(Nc3ccc(F)cc3O[C@H]3COC[C@@H]3O)c12 (some centres unmarked) [Example 9.24]" experimental_system="MNK1a (Homo sapiens (Human))" endpoint_name="inhibition at 1 µM" quantitative_result=97
compound="Cc1cc(N=S2(=O)CCC2)cc2ncnc(Nc3ccc(F)cc3O[C@@H]3COC[C@H]3O)c12 [Example 2.47]" experimental_system="MNK1a (Homo sapiens (Human))" endpoint_name="inhibition at 1 µM" quantitative_result=103
compound="CCS(C)(=O)=Nc1cc(C)c2c(Nc3ccc(F)cc3O[C@H]3COC[C@@H]3O)ncnc2c1 (some centres unmarked) [Example 2.37]" experimental_system="MNK1a (Homo sapiens (Human))" endpoint_name="inhibition at 1 µM" quantitative_result=93
compound="Cc1cc(N=S(C)(C)=O)cc2ncnc(Nc3cccnc3O[C@@H]3COC[C@H]3O)c12 [Example 2.51]" experimental_system="MNK1a (Homo sapiens (Human))" endpoint_name="inhibition at 1 µM" quantitative_result=81
compound="Cc1cc(N=S(C)(C)=O)cc2ncnc(Nc3ccc(F)cc3O[C@H]3CN(C)C[C@@H]3O)c12 [Example 2.62]" experimental_system="MNK1a (Homo sapiens (Human))" endpoint_name="inhibition at 1 µM" quantitative_result=78

Now look at this one.
Request: # get_value(readout='inhibition at 1 µM', item= CO[C@@H]1CN(C)C[C@H]1Oc1cc(F)ccc1Nc1ncnc2cc(N=S3(=O)CCCC3)cc(C)c12 [Example 11.2] )
Result: 75

----------
- experimental.system: MNK2a (Homo sapiens (Human))
- Sequence (Q9HBH9 whole entry): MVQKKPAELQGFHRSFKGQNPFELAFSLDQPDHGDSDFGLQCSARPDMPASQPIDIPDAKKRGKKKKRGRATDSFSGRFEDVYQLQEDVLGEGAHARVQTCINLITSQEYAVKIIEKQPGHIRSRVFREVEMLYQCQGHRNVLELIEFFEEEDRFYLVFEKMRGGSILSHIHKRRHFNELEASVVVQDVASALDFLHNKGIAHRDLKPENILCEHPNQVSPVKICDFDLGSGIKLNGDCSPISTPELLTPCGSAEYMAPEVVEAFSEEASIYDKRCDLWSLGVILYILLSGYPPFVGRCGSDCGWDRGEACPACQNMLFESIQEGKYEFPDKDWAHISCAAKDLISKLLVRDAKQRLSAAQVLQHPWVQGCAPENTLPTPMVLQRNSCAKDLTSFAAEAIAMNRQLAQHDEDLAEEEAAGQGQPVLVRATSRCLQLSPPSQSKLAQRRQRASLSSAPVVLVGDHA
- measurement.description: MNK2a in vitro kinase assay (Assay 2), ADP-Glo
- Type: biochemical
- test.context: assay 2; read-out: MNK2 IC50
pIC50: −log10 of the molar value.
pIC50 below 8 gives 0.0; pIC50 at or above it gives 1.0.

// known answers, use as guide
compound="Cc1cc(N=S2(=O)CCC(C)C2)cc2ncnc(Nc3ccc(F)cc3O[C@@H]3COC[C@@H]3O)c12 (mixture of isomers)" assigned_label=1.0
compound=O=S1(=Nc2cc(Cl)c3c(Nc4ccc(Cl)nc4O[C@H]4COC[C@@H]4O)ncnc3c2)CCCC1 assigned_label=1.0
compound=Cc1cc(N=S2(=O)CCCC2)cc2ncnc(Nc3ccc(Cl)nc3O[C@H]3COC[C@@H]3O)c12 assigned_label=1.0
compound="CS(=O)(=Nc1cc(F)c2c(Nc3ccc(F)cc3O[C@H]3COC[C@@H]3O)ncnc2c1)C1CC1 (stereo partly shown)" assigned_label=0.0
compound=CC(=O)N1C[C@@H](O)[C@H](Oc2ncccc2Nc2ncnc3cc(N=S4(=O)CCCC4)cc(C)c23)C1 assigned_label=0.0

Request: I'd appreciate it if you could say whether CC1CCS(=O)(=Nc2cc(F)c3c(Nc4ccc(F)cc4O[C@H]4COC[C@@H]4O)ncnc3c2)C1 (stereo partly shown) has pIC50 at least equal to 8.
Result: 1.0

Request: pIC50 >= 8 for COc1cc(N=S(C)(=O)C(C)C)cc2ncnc(Nc3ccc(F)cc3O[C@H]3COC[C@H]3O)c12 (mixture of isomers) ?
Result: 0.0

Request: # check: pIC50 of CO[C@@H]1CN(C)C[C@H]1Oc1ncccc1Nc1ncnc2cc(N=S(C)(C)=O)cc(C)c12 is greater than or equal to 8
Result: 0.0

Request: State whether the measured pIC50 reaches 8, counting equality as reaching it, for COc1cc(N=S(C)(C)=O)cc2ncnc(Nc3ccc(Cl)nc3O[C@H]3COC[C@@H]3O)c12
Result: 1.0

Request: Check if pIC50 >= 8 (inclusive). Item: Cc1cc(N=S(C)(C)=O)cc2ncnc(Nc3cccnc3O[C@@H]3CN(S(C)(=O)=O)C[C@H]3O)c12
Result: 0.0

Request: Does the compound CO[C@@H]1CN(CC(F)F)C[C@H]1Oc1ncccc1Nc1ncnc2cc(N=S(C)(C)=O)cc(C)c12 have recorded pIC50 that is 8 or more?
Result: 0.0

Request: Check this compound for pIC50 at or above 8: COc1cc(N=S(C)(C)=O)cc2ncnc(Nc3ccc(F)cc3O[C@H]3COC[C@H]3OC)c12 (racemic)
Result: 1.0

Request: Given the entry CO[C@@H]1CN(CC(F)F)C[C@H]1Oc1cc(F)ccc1Nc1ncnc2cc(N=S(C)(C)=O)cc(C)c12 , answer whether its pIC50 meets or surpasses 8.
Result: 0.0

Request: Is reported pIC50 greater than or equal to 8 here: CS(C)(=O)=Nc1cc(C2CC2)c2c(Nc3ccc(F)cc3O[C@H]3COC[C@@H]3O)ncnc2c1
Result: 0.0

Request: Does Cc1cc(N=S2(=O)CCCC2)cc2ncnc(Nc3cccnc3O[C@H]3COC[C@H]3OCCF)c12 (racemic) have a reported pIC50 of at least 8?
Result: 1.0

Request: Tell me whether pIC50 is at least 8 here: CS(C)(=O)=Nc1cc(OC(F)F)c2c(Nc3ccc(F)cc3O[C@H]3COC[C@@H]3O)ncnc2c1
Result: 0.0

Request: hey, is pIC50 for this one >= 8? O=S1(=Nc2cc(Cl)c3c(Nc4ccc(F)cc4O[C@H]4COC[C@H]4O)ncnc3c2)CCC1 (single isomer, unassigned)
Result: 1.0

Request: For this compound, is measured pIC50 8 or higher? COc1cc(N=S2(=O)CCCC2)cc2ncnc(Nc3ccc(F)cc3O[C@H]3COC[C@H]3OC)c12 (racemic)
Result: 1.0
